src = patent US7998982B2

Assignment: determine reported IC50 for the given compounds.
Biological target: human TRPV1 receptor (Homo sapiens)
Experiment: Ca2+ influx assay (FLIPR, Fluo-4 AM) of capsaicin-evoked response in cells expressing recombinant TRPV1
Conditions: 1321N1 human astrocytoma cells expressing hTRPV1; inhibition of 0.05 μM capsaicin-induced [Ca2+]i increase
Response body: numeric value in nM, unit text excluded.

Recorded IC50 for C[C@@H]1CN(c2ncccc2Cl)CC=C1C(=O)Nc1ccc(S(=O)(=O)C(F)(F)F)cc1 [Example 1] on human TRPV1 receptor (Homo sapiens) was 28

// compound C[C@H]1CN(c2ncccc2C(F)(F)F)CC=C1C(=O)Nc1ccc(C(F)(F)F)cc1 (single isomer, unassigned) [Example 10] , assay human TRPV1 receptor (Homo sapiens), IC50 value: 480

// IC50 (human TRPV1 receptor (Homo sapiens)) for C[C@H]1CN(c2ncccc2C(F)(F)F)CC=C1C(=O)Nc1ccc(C(C)(C)C#N)cc1 (single isomer, unassigned) [Example 14] = 710

The compound Cc1cccnc1N1CC=C(C(=O)Nc2ccc(C(F)(F)F)nc2)[C@H](C)C1 (single isomer, unassigned) [Example 19] on human TRPV1 receptor (Homo sapiens): IC50 was 190

IC50 of Cc1cccnc1N1CC=C(C(=O)Nc2ccc(S(=O)(=O)C(F)(F)F)cc2)[C@H](C)C1 [Example 3] , assay on human TRPV1 receptor (Homo sapiens), is 20

Case C[C@@H]1CN(c2ncccc2C(F)(F)F)CC=C1C(=O)Nc1ccc(C(C)(C)C#N)cc1 (single isomer, unassigned) [Example 13] , human TRPV1 receptor (Homo sapiens), IC50 recorded as 89

Query Cc1cccnc1N1CC=C(C(=O)Nc2ccc(C(C)(C)C#N)cc2)[C@@H](C)C1 [Example 18] on human TRPV1 receptor (Homo sapiens); IC50 returned: 1300

---

Target: human TRPV1 receptor (Homo sapiens, UniProt Q8NER1)
Sequence (Q8NER1 whole entry): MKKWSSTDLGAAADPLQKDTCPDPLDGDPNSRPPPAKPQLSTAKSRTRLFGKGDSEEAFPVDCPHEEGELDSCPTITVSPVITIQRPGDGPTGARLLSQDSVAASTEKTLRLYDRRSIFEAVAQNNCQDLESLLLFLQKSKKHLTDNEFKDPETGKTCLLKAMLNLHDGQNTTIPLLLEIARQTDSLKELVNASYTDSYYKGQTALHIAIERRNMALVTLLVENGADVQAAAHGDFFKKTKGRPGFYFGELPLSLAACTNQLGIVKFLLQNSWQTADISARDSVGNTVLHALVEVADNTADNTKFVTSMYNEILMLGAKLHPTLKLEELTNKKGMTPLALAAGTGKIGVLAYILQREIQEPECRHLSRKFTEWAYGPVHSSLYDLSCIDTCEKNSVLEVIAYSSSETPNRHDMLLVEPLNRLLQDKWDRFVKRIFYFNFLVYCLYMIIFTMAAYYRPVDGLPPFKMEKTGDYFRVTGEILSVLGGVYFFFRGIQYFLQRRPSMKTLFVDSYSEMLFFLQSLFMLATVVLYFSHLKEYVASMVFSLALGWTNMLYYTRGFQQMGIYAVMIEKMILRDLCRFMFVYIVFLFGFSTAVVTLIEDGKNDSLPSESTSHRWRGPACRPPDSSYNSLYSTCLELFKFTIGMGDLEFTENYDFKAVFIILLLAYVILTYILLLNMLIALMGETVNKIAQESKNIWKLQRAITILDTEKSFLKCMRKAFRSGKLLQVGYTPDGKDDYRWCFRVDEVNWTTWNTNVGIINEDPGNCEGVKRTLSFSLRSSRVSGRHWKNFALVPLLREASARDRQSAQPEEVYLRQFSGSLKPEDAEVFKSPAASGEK
Experiment: Ca2+ influx assay (FLIPR, Fluo-4 AM) of capsaicin-evoked response in cells expressing recombinant TRPV1
Settings: 1321N1 human astrocytoma cells expressing hTRPV1; inhibition of 0.05 μM capsaicin-induced [Ca2+]i increase
experimentalReadout: pIC50
// returns pIC50 (minus log10 of molar concentration), number only

The measured pIC50 associated with C[C@@H]1CN(c2ncccc2C(F)(F)F)CC=C1C(=O)Nc1ccc(S(=O)(=O)C(F)(F)F)cc1 (single isomer, unassigned) reads 7.40

Short answer for Cc1cccnc1N1CC=C(C(=O)Nc2ccc(S(=O)(=O)C(F)(F)F)cc2)[C@@H](C)C1 : pIC50 was 6.12

// recorded pIC50 for C[C@H]1CN(c2ncccc2Cl)CC=C1C(=O)Nc1ccc(S(=O)(=O)C(F)(F)F)cc1 : 6.64

What the record says about Cc1cccnc1N1CC=C(C(=O)Nc2ccc(C(C)(C)C)cc2)[C@@H](C)C1 (single isomer, unassigned) : pIC50 is 6.21

For reference, reported pIC50 for C[C@H]1CN(c2ncccc2C(F)(F)F)CC=C1C(=O)Nc1ccc(S(=O)(=O)C(F)(F)F)cc1 (single isomer, unassigned) stands at 6.19

Per the records, this molecule ( C[C@@H]1CN(c2ncccc2Cl)CC=C1C(=O)Nc1ccc(C(F)(F)F)cc1 ) has pIC50 equal to 7.70

Per the record, Cc1cccnc1N1CC=C(C(=O)Nc2ccc(C(F)(F)F)nc2)[C@@H](C)C1 (single isomer, unassigned) has pIC50 of 5.51

pIC50 measured on Cc1cccnc1N1CC=C(C(=O)Nc2ccc(C(F)(F)F)cc2)[C@H](C)C1 = 7.20

For C[C@@H]1CN(c2ncccc2C(F)(F)F)CC=C1C(=O)Nc1ccc(C(F)(F)F)cc1 the molecule record lists pIC50 as 7.59

Kindly note the recorded pIC50 for C[C@H]1CN(c2ncccc2Cl)CC=C1C(=O)Nc1ccc(C(F)(F)F)cc1 , which is 7.08

Record Cc1cccnc1N1CC=C(C(=O)Nc2ccc(C(F)(F)F)cc2)[C@@H](C)C1 (single isomer, unassigned) . Reported pIC50: 6.42

pIC50 reading for Cc1cccnc1N1CC=C(C(=O)Nc2ccc(C(C)(C)C#N)cc2)[C@H](C)C1 (single isomer, unassigned) : 7.89

Memo: Cc1cccnc1N1CC=C(C(=O)Nc2ccc(C(C)(C)C)cc2)[C@H](C)C1 (single isomer, unassigned) , reported pIC50: 7.82
